Consider the following compounds; for each one, report its pKi.
experimental.system: Neuronal acetylcholine receptor; alpha4/beta2 (Homo sapiens, UniProt P17787+P43681)
Sequence (P17787 whole entry): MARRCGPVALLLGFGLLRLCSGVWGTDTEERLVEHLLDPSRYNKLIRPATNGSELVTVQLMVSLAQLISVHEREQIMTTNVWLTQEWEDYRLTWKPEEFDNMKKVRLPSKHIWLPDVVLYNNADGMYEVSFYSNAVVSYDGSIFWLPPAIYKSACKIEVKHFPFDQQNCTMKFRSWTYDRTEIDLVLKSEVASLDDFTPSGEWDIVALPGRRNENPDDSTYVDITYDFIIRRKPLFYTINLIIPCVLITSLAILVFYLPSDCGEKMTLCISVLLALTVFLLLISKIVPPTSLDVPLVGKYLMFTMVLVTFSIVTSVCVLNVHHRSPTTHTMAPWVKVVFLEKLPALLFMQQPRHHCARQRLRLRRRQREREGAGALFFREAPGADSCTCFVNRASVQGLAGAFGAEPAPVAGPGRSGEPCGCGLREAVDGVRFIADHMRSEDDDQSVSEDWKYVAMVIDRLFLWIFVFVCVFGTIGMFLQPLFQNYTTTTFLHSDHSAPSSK
Sequence (P43681 whole entry): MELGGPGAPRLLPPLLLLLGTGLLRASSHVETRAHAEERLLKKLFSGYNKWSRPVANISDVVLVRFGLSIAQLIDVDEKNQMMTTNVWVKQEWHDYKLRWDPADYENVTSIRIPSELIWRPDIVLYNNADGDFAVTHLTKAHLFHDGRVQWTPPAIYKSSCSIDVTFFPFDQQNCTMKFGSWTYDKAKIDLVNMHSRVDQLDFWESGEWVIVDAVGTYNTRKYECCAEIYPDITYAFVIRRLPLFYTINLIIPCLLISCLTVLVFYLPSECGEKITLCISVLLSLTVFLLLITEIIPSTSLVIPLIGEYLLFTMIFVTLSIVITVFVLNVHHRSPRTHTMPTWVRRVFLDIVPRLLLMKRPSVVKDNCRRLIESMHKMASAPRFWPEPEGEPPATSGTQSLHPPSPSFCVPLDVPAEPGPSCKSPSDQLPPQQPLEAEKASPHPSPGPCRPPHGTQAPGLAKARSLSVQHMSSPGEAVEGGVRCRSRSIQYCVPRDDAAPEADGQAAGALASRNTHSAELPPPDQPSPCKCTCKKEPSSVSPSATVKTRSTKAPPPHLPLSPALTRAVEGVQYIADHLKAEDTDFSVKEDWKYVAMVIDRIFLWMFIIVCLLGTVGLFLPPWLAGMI
protocol: Binding affinity to alpha4beta2 nAChR (unknown origin) assessed as dissociation constant
# reply with the number alone; pKi is -log10 of concentration in mol/L

Readout pKi for c1cncc(C[C@H]2[C@H](Oc3ccc(-c4ccc5[nH]ccc5c4)nn3)C3CCN2CC3)c1 (relative stereo) , test system Neuronal acetylcholine receptor; alpha4/beta2 (Homo sapiens, UniProt P17787+P43681), was 7.14

Readout pKi for c1cncc(C[C@@H]2[C@H](Oc3ccc(-c4ccc5[nH]ccc5c4)nn3)C3CCN2CC3)c1 (relative stereo) , test system Neuronal acetylcholine receptor; alpha4/beta2 (Homo sapiens, UniProt P17787+P43681), was 7.76

Readout pKi for c1cncc(C[C@@H]2[C@@H](Oc3nnc(-c4ccc5[nH]ccc5c4)s3)C3CCN2CC3)c1 (relative stereo) , test system Neuronal acetylcholine receptor; alpha4/beta2 (Homo sapiens, UniProt P17787+P43681), was 6.66

Readout pKi for c1cncc(C[C@@H]2[C@@H](Oc3ccc(-c4ccc[nH]4)nn3)C3CCN2CC3)c1 (relative stereo) , test system Neuronal acetylcholine receptor; alpha4/beta2 (Homo sapiens, UniProt P17787+P43681), was 6.70

Readout pKi for c1ccc(-c2nnc(O[C@H]3C4CCN(CC4)[C@@H]3Cc3cccnc3)s2)cc1 (relative stereo) , test system Neuronal acetylcholine receptor; alpha4/beta2 (Homo sapiens, UniProt P17787+P43681), was 6.48

Readout pKi for c1cncc(C[C@@H]2[C@@H](Oc3cc4ccccc4cn3)C3CCN2CC3)c1 (relative stereo) , test system Neuronal acetylcholine receptor; alpha4/beta2 (Homo sapiens, UniProt P17787+P43681), was 5.73

Readout pKi for c1cncc(C[C@H]2[C@H](Oc3cnc(-c4ccc5[nH]ccc5c4)cn3)C3CCN2CC3)c1 (relative stereo) , test system Neuronal acetylcholine receptor; alpha4/beta2 (Homo sapiens, UniProt P17787+P43681), was 6.64

====

experimental.system: Neuronal acetylcholine receptor subunit alpha-7 (Homo sapiens, UniProt P36544)
Sequence (P36544 whole entry): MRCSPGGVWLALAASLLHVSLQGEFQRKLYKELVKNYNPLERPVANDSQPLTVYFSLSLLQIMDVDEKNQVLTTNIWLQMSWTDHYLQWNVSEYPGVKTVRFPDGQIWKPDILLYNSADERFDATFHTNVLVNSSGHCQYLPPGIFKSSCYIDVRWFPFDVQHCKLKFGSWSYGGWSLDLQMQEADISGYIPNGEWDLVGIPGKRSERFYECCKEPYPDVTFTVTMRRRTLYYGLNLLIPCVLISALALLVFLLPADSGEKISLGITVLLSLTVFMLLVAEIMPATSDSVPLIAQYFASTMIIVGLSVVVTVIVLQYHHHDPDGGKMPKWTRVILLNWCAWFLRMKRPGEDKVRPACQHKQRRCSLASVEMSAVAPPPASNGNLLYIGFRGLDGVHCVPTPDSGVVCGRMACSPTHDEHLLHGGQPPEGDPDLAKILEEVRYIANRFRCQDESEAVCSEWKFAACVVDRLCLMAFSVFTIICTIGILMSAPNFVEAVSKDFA
protocol: Binding affinity to alpha7 nAChR (unknown origin) assessed as dissociation constant
quantity: Ki (nM)
Please reply with the bare figure in nM and do not write the unit itself.

Lookup result for c1cncc(C[C@H]2[C@H](Oc3ccc(-c4ccc5[nH]ccc5c4)cn3)C3CCN2CC3)c1 ; measured Ki: 58

Lookup result for c1cncc(C[C@H]2[C@H](Oc3cnc(-c4ccc5[nH]ccc5c4)cn3)C3CCN2CC3)c1 (relative stereo) ; measured Ki: 240

Lookup result for Nc1nc2ccc(-c3ccc(O[C@H]4C5CCN(CC5)[C@@H]4Cc4cccnc4)nn3)cc2s1 (relative stereo) ; measured Ki: 18.8

====

experimental.system: Neuronal acetylcholine receptor; alpha4/beta2 (Homo sapiens, UniProt P17787+P43681)
protocol: Binding affinity to alpha4beta2 nAChR (unknown origin) assessed as dissociation constant
quantity: Ki
The reply should read as a number followed by its unit.

Lookup result for c1ccc(-c2ccc(O[C@@H]3C4CCN(CC4)[C@H]3Cc3cccnc3)nn2)cc1 (relative stereo) ; measured Ki: 120 nM

Lookup result for Nc1nc2ccc(-c3ccc(O[C@H]4C5CCN(CC5)[C@@H]4Cc4cccnc4)nn3)cc2s1 (relative stereo) ; measured Ki: 50 nM

Lookup result for c1cncc(C[C@@H]2[C@@H](Oc3ccc4ccccc4n3)C3CCN2CC3)c1 (relative stereo) ; measured Ki: 140 nM

Lookup result for c1cncc(C[C@H]2[C@H](Oc3ccc(-c4ccc5[nH]ccc5c4)cn3)C3CCN2CC3)c1 ; measured Ki: 470 nM
